biological target: Human PKMYT1 (Homo sapiens, UniProt Q99640); construct: Human PKMYT1 75-362 was cloned as a TEV cleavable 6xHis fusion; 6xHis (TEV cleavable) (cleaved yes); made in house; host or cells: bacterial cells; test: PKMYT1 biochemical ADP-Glo enzymatic assay; conditions: ADP-Glo; 15 nM PKMYT1 kinase domain, 500 µM ATP, 60 minutes at 26° C.; banded
Sequence (Q99640 75-362): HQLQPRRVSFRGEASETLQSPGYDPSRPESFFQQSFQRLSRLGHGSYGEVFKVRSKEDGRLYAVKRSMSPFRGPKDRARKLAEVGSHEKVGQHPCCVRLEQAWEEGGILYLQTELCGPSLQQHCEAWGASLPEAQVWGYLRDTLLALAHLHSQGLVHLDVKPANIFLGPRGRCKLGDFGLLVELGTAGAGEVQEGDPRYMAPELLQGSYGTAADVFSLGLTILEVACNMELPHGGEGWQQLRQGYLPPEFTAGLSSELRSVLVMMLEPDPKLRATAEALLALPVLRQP
Where a name gives a salt, the structure may show the parent alone.
Catalogue of IC50 values

>>> readoutvalue("Cc1ccc(O)c(C)c1NC(=O)c1cnc(Nc2ccn([C@@H]3CCN(C(=O)c4ccccc4)C3)n2)s1")
"50 to 1000 nM"
>>> readoutvalue("Cc1ccc(O)c(C)c1NC(=O)c1cnc(Nc2ccn(CC(=O)N3CCN(CC(F)(F)F)CC3)n2)s1")
"50 to 1000 nM"
>>> readoutvalue("Cc1ccc(O)c(C)c1NC(=O)c1cnc(Nc2ccn(CC(=O)NCCN3CCCC3)n2)s1 [BAA-167, (hydrochloride)]")
"50 to 1000 nM"
>>> readoutvalue("Cc1ccc(O)c(C)c1NC(=O)c1cnc(Nc2ccn([C@H]3CCCNC3)n2)s1 [BAA-054, (hydrochloride)]")
"1000 to 11000 nM"
>>> readoutvalue("Cc1ccc(O)c(C)c1NC(=O)c1cnc(Nc2ccn(CC(=O)N3C[C@@H]4C[C@H]3CN4C(=O)OC(C)(C)C)n2)s1")
"< 50 nM"
>>> readoutvalue("Cc1ccc(NC(=O)OC(C)(C)C)nc1Nc1ncc(C(=O)Nc2c(C)ccc(O)c2C)s1")
"50 to 1000 nM"

Prompt: Tell me IC50 reported for Cc1ccc(O)c(C)c1NC(=O)c1cnc(Nc2cc(C3CC3)n(C)n2)s1
Response: < 50 nM

Prompt: Look up and state reported IC50 for Cc1ccc(O)c(C)c1NC(=O)c1cnc(Nc2ccn(C3CCN(C(=O)OC(C)(C)C)CC3)n2)s1
Response: 50 to 1000 nM

Prompt: Give IC50 for the following molecule: Cc1ccc(O)c(C)c1NC(=O)c1cnc(Nc2ccn(CC(=O)NC3CCN(C)CC3)n2)s1 [BAA-151, (hydrochloride)]
Response: 50 to 1000 nM
